IC50 listing for selected molecules.
- SYSTEM_TESTED: DR1 (DRA1*0101 DRB1*0101) (Homo sapiens, UniProt P01903+P01911, A100R/D57E/F55L/F60I/F76Y/I96L/L162R/M171V/P40L/Q125E/R42F/V115G/Y59C)
- METHOD_SUMMARY: Competitive binding to MHC-II protein DR1
- CONDITION_SET: Protein binding IC50 (nM) 0101, 0101
Numbered stars: 1 amine (or outer) side, 2 acyl side, 3 side chain; on linkers, the order of the positions; unused ones are H or OH. Square brackets hold non-standard residues; d marks the D form. Peptide text beside a SMILES is read from it. * marks the point of attachment. ξ: configuration not given here. Gly(1-amidinopiperidin-4-yl) = N=C(N)N1CCC([C@H](N)C(=O)O)CC1; X1 = CC(C)c1oc([C@H](CO)N[*:1])nc1C(=O)[*:2]; Pro(3R-Ph) = O=C(O)[C@H]1NCC[C@@H]1c1ccccc1; Met(O) = CS(=O)CC[C@H](N)C(=O)O; Tic = O=C(O)[C@@H]1Cc2ccccc2CN1; Cha = N[C@@H](CC1CCCCC1)C(=O)O; ξDisc = O=C(O)C1NCc2ccccc21; Nle = CCCC[C@H](N)C(=O)O; X2 = OCCOCCN(Cc1ccccc1)*; X5 = OCCN(Cc1ccccc1)*; NHBn = c1ccc(CN*)cc1
Report as a plain number; the unit nM is understood.

- CCCC[C@H](NC(=O)[C@@H]1Cc2ccccc2CN1C(=O)[C@H](CCCNC(=N)N)NC(=O)[C@H](CC1CCCCC1)NC(C)=O)C(=O)N(CCOCCO)Cc1ccccc1 [Compound P98, Ac-Cha-Arg-Tic-Nle-N(Bn)CH2CH2OCH2CH2OH] (Ac-[Cha]R[Tic][Nle]-X2): 640
- CCCC[C@H](NC(=O)[C@@H]1Cc2ccccc2CN1C(=O)[C@@H](NC(=O)[C@H](CC1CCCCC1)NC(C)=O)C1CCN(C(=N)N)CC1)C(=O)N(CCO)Cc1ccccc1 [Compound P78, Ac-Cha-Gpg-Tic-Nle-N(Bn)CH2CH2OH] (Ac-[Cha][Gly(1-amidinopiperidin-4-yl)][Tic][Nle]-X5): 430
- CCCC[C@H](NC(=O)[C@@H]1Cc2ccccc2CN1C(=O)[C@@H](NC(=O)[C@H](CC1CCCCC1)NC(C)=O)C1CCN(C(=N)N)CC1)C(=O)NCc1ccccc1 [Compound P68, Ac-Cha-Gpg-Tic-Nle-N(H)Bn] (Ac-[Cha][Gly(1-amidinopiperidin-4-yl)][Tic][Nle]-NHBn): 600
- CSCC[C@H](NC(=O)[C@@H]1Cc2ccccc2CN1C(=O)[C@H](CCCNC(=N)N)NC(=O)[C@H](CC1CCCCC1)NC(C)=O)C(N)=O [Compound P1, Ac-Cha-Arg-Tic-Met-NH2] (Ac-[Cha]R[Tic]M-NH2): 260
- CSCC[C@H](NC(=O)C1c2ccccc2CN1C(=O)[C@@H](NC(=O)[C@H](CC1CCCCC1)NC(C)=O)C1CCN(C(=N)N)CC1)C(N)=O (stereo partly drawn) [Compound P66-1, Ac-Cha-Gpg-Disc-Met-NH2] (Ac-[Cha][Gly(1-amidinopiperidin-4-yl)][ξDisc]M-NH2): 290

Exercise: What value of measured IC50 is listed for CSCC[C@H](NC(=O)[C@@H]1Cc2ccccc2CN1C(=O)[C@@H](NC(=O)[C@H](CC1CCCCC1)NC(C)=O)C1CCN(C(=N)N)CC1)C(=O)N1CC[C@H](c2ccccc2)[C@H]1C(N)=O [Compound P80, Ac-Cha-Gpg-Tic-Met-βPhProNH2] (Ac-[Cha][Gly(1-amidinopiperidin-4-yl)][Tic]M[Pro(3R-Ph)]-NH2) ?
Solution: 550

Exercise: Similarly, CC(=O)N[C@@H](CC1CCCCC1)C(=O)N[C@@H](CCCNC(=N)N)C(=O)N1Cc2ccccc2C[C@H]1C(=O)N[C@@H](CC[S+](C)[O-])C(=O)N1CC[C@H](c2ccccc2)[C@H]1C(=O)N[C@@H](CO)c1nc(C(=O)N(C)C)c(C(C)C)o1 (stereo partly drawn) [Compound P43] (Ac-[Cha]R[Tic][Met(O)][Pro(3R-Ph)][X1]-NMe2) ?
Solution: 380
